Data provenance is patent US20090291942A1.

biological target: human GPR4 (Homo sapiens, UniProt P46093); assay: Cell-based assay for human GPR4 activity (pH-induced cAMP formation, HTRF); details: HeLa cells stably expressing human GPR4, pH-induced cAMP formation
Sequence (P46093 whole entry): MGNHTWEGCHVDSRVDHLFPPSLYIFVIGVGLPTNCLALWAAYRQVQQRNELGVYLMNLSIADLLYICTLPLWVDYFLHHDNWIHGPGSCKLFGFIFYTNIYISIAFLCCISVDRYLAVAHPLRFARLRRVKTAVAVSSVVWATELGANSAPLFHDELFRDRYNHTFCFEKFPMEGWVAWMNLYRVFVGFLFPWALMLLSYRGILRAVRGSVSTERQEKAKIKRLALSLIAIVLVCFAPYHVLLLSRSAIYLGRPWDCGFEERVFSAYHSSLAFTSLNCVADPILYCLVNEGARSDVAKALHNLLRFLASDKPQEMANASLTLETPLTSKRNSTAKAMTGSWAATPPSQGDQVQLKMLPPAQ
pIC50: −log10 of the molar value. Structures can show the parent of a compound that is named as a salt.
quantity-kind: pIC50

- molecule: "CCc1nc2c(C)cc(C)nc2n1Cc1ccc(CCCN2CCN(C3CC3)CC2)cc1"
  quantity-kind: "pIC50"
  observed: 6.47
- molecule: "CCc1nc2c(C)cc(C)nc2n1Cc1ccc(/C=C/CN2CCN(CCC(C)C)CC2)cc1 [Example 52, dihydrochloride]"
  quantity-kind: "pIC50"
  observed: 6.85

(P) CCc1nc2c(C)cc(C)nc2n1Cc1ccc(CCCN2CCN(CCN(C)C)CC2)cc1 [Example 21, dihydrochloride]
(Q) Cc1cc(C)c2nc(C(F)(F)F)n(Cc3ccc(/C=C/CN4CCC(N5CCN(C)CC5)CC4)cc3)c2n1 [Example 88, trihydrochloride]
## Input Returns: the label, P or Q , whose recorded pIC50 is the lower number. Indicate which entry you chose by stating its label.
## Output P

====

molecular target: human GPR4 (Homo sapiens, UniProt P46093); assay: Cell-based assay for human GPR4 activity (pH-induced cAMP formation, HTRF); conditions: HeLa cells stably expressing human GPR4, pH-induced cAMP formation
pIC50: −log10 of the molar value. Counter-ions that a name gives are not always drawn.
quantity-kind: pIC50

- molecule: "CCc1nc2c(C)cc(C)nc2n1Cc1ccc(/C=C/CN2CCC(N3CCN(C)CC3)CC2)cc1"
  pIC50: 6.47
- molecule: "CCc1nc2c(C)cc(C)nc2n1Cc1ccc(/C=C/CN2CCN(Cc3ccc(OC)c(OC)c3)CC2)cc1 [Example 67, trihydrochloride]"
  pIC50: 6.39
- molecule: "CCc1nc2c(C)cc(C)nc2n1Cc1ccc(CCCN2C[C@H]3C[C@@H]2CN3CC2CC2)cc1"
  pIC50: 6.36
- molecule: "CCc1nc2c(C)cc(C)nc2n1Cc1ccc(/C=C/CN2CCN(C)CC2)cc1"
  pIC50: 6.86
- molecule: "CCc1nc2c(C)cc(C)nc2n1Cc1ccc(/C=C/CN2CCN(C3CCCC3)CC2)cc1"
  pIC50: 6.78
- molecule: "Cc1cc(C)c2nc(C3CC3)n(Cc3ccc(/C=C/CN4CCN(C(C)C)CC4)cc3)c2n1 [Example 84, dihydrochloride]"
  pIC50: 6.74
- molecule: "CCc1nc2c(C)cc(C)nc2n1Cc1ccc(/C=C/Cn2ccnc2)cc1 [Example 80, hydrochloride]"
  pIC50: 6.31
- molecule: "CCc1nc2c(C)cc(C)nc2n1Cc1ccc(/C=C/CCN2CCC(N3CCN(C)CC3)CC2)cc1"
  pIC50: 6.72

(P) CCc1nc2c(C)cc(C)nc2n1Cc1ccc(CCCN2CCN(C(C)C)C(C)C2)cc1 (stereo not drawn)
(Q) CCc1nc2c(C)cc(C)nc2n1Cc1ccc(/C=C(\F)CN2CCC(N3CCCCC3)CC2)cc1 [Example 93, dihydrochloride]
## Input Two entries are listed, P and Q . Which one carries the higher pIC50? Indicate which entry you chose by stating its label.
## Output Q
(Q: 7.54, P: 6.60)

(P) CCc1nc2c(C)cc(C)nc2n1Cc1ccc(C#CCN2CCN(C(C)C)CC2)cc1
(Q) CCc1nc2c(C)cc(C)nc2n1Cc1ccc(/C=C/CN2CCOC(CNC(=O)OC(C)(C)C)C2)cc1 (stereo not drawn)
## Input Returns: the label, P or Q , whose recorded pIC50 is the lower number. Indicate which entry you chose by stating its label.
## Output Q
